Substrate: NC(=O)C[C@H](N)C(=O)O
Assay Name: Nessler reagent assay of ammonia, Michaelis-Menten fit
Type: biochemical, Thermococcus litoralis
Condition Details: pH 10, 80 °C, 0.5-18.0 mM L-asparagine, free enzyme
// returns Criterion not met unless kcat/Km is strictly below 500000 M⁻¹ s⁻¹, in which case Criterion met

[
  {
    "Protein": "L-asparaginase Tli10209 (Thermococcus litoralis DSM 5473; D50G) (protein) MSEKRKLERRGAEDMKRILIIGTGGTIASAKTDAGFKSVLTIDEILEKAGIKLKNGYEIDTRNILNIDSTLIQPEDWERIAKEVYKALEDYDGIVITHGTDTLAYTASMLTFMIRGINKPVVLTGSMRPVTEEESDAPRNLKAAIRFAMEDVSGIFVAFMDKIMLGCRTSKIRALGLNAFMSINYPDVAYVKGEEVIYNLPQKRFKPKGEPVLDTKYEPRVVFIRLTPGLDGNAIDALVKAGYRGIVLEGYGAGGIPYRKRDILSKIREITPQIPVVMTTQALYDGVDLTKYEVGRKALEAGIIPAKDMTKETTITKLMWALGHTKNVEEVKEIMHTNYADEIEG",
    "Class Assignment": "Criterion met"
  }
]

Q: is_below(kcat/Km, 500000 M⁻¹ s⁻¹) for L-asparaginase Tli10209 (Thermococcus litoralis DSM 5473; T70A) (protein) MSEKRKLERRGAEDMKRILIIGTGGTIASAKTDAGFKSVLTIDEILEKADIKLKNGYEIDTRNILNIDSALIQPEDWERIAKEVYKALEDYDGIVITHGTDTLAYTASMLTFMIRGINKPVVLTGSMRPVTEEESDAPRNLKAAIRFAMEDVSGIFVAFMDKIMLGCRTSKIRALGLNAFMSINYPDVAYVKGEEVIYNLPQKRFKPKGEPVLDTKYEPRVVFIRLTPGLDGNAIDALVKAGYRGIVLEGYGAGGIPYRKRDILSKIREITPQIPVVMTTQALYDGVDLTKYEVGRKALEAGIIPAKDMTKETTITKLMWALGHTKNVEEVKEIMHTNYADEIEG ?
Ans: Criterion not met

Q: is_below(kcat/Km, 500000 M⁻¹ s⁻¹) for L-asparaginase Tli10209 (Thermococcus litoralis DSM 5473; K48L/T70A) (protein) MSEKRKLERRGAEDMKRILIIGTGGTIASAKTDAGFKSVLTIDEILELADIKLKNGYEIDTRNILNIDSALIQPEDWERIAKEVYKALEDYDGIVITHGTDTLAYTASMLTFMIRGINKPVVLTGSMRPVTEEESDAPRNLKAAIRFAMEDVSGIFVAFMDKIMLGCRTSKIRALGLNAFMSINYPDVAYVKGEEVIYNLPQKRFKPKGEPVLDTKYEPRVVFIRLTPGLDGNAIDALVKAGYRGIVLEGYGAGGIPYRKRDILSKIREITPQIPVVMTTQALYDGVDLTKYEVGRKALEAGIIPAKDMTKETTITKLMWALGHTKNVEEVKEIMHTNYADEIEG ?
Ans: Criterion met

Q: is_below(kcat/Km, 500000 M⁻¹ s⁻¹) for L-asparaginase Tli10209 (Thermococcus litoralis DSM 5473; K48L) (protein) MSEKRKLERRGAEDMKRILIIGTGGTIASAKTDAGFKSVLTIDEILELADIKLKNGYEIDTRNILNIDSTLIQPEDWERIAKEVYKALEDYDGIVITHGTDTLAYTASMLTFMIRGINKPVVLTGSMRPVTEEESDAPRNLKAAIRFAMEDVSGIFVAFMDKIMLGCRTSKIRALGLNAFMSINYPDVAYVKGEEVIYNLPQKRFKPKGEPVLDTKYEPRVVFIRLTPGLDGNAIDALVKAGYRGIVLEGYGAGGIPYRKRDILSKIREITPQIPVVMTTQALYDGVDLTKYEVGRKALEAGIIPAKDMTKETTITKLMWALGHTKNVEEVKEIMHTNYADEIEG ?
Ans: Criterion not met

Q: is_below(kcat/Km, 500000 M⁻¹ s⁻¹) for L-asparaginase Tli10209 (Thermococcus litoralis DSM 5473; F36Y/T70A) (protein) MSEKRKLERRGAEDMKRILIIGTGGTIASAKTDAGYKSVLTIDEILEKADIKLKNGYEIDTRNILNIDSALIQPEDWERIAKEVYKALEDYDGIVITHGTDTLAYTASMLTFMIRGINKPVVLTGSMRPVTEEESDAPRNLKAAIRFAMEDVSGIFVAFMDKIMLGCRTSKIRALGLNAFMSINYPDVAYVKGEEVIYNLPQKRFKPKGEPVLDTKYEPRVVFIRLTPGLDGNAIDALVKAGYRGIVLEGYGAGGIPYRKRDILSKIREITPQIPVVMTTQALYDGVDLTKYEVGRKALEAGIIPAKDMTKETTITKLMWALGHTKNVEEVKEIMHTNYADEIEG ?
Ans: Criterion met

Q: is_below(kcat/Km, 500000 M⁻¹ s⁻¹) for L-asparaginase Tli10209 (Thermococcus litoralis DSM 5473; F36Y) (protein) MSEKRKLERRGAEDMKRILIIGTGGTIASAKTDAGYKSVLTIDEILEKADIKLKNGYEIDTRNILNIDSTLIQPEDWERIAKEVYKALEDYDGIVITHGTDTLAYTASMLTFMIRGINKPVVLTGSMRPVTEEESDAPRNLKAAIRFAMEDVSGIFVAFMDKIMLGCRTSKIRALGLNAFMSINYPDVAYVKGEEVIYNLPQKRFKPKGEPVLDTKYEPRVVFIRLTPGLDGNAIDALVKAGYRGIVLEGYGAGGIPYRKRDILSKIREITPQIPVVMTTQALYDGVDLTKYEVGRKALEAGIIPAKDMTKETTITKLMWALGHTKNVEEVKEIMHTNYADEIEG ?
Ans: Criterion met

Q: is_below(kcat/Km, 500000 M⁻¹ s⁻¹) for L-asparaginase Tli10209 (Thermococcus litoralis DSM 5473; D50G/T70A) (protein) MSEKRKLERRGAEDMKRILIIGTGGTIASAKTDAGFKSVLTIDEILEKAGIKLKNGYEIDTRNILNIDSALIQPEDWERIAKEVYKALEDYDGIVITHGTDTLAYTASMLTFMIRGINKPVVLTGSMRPVTEEESDAPRNLKAAIRFAMEDVSGIFVAFMDKIMLGCRTSKIRALGLNAFMSINYPDVAYVKGEEVIYNLPQKRFKPKGEPVLDTKYEPRVVFIRLTPGLDGNAIDALVKAGYRGIVLEGYGAGGIPYRKRDILSKIREITPQIPVVMTTQALYDGVDLTKYEVGRKALEAGIIPAKDMTKETTITKLMWALGHTKNVEEVKEIMHTNYADEIEG ?
Ans: Criterion not met

Q: is_below(kcat/Km, 500000 M⁻¹ s⁻¹) for L-asparaginase Tli10209 (Thermococcus litoralis DSM 5473) (protein) MSEKRKLERRGAEDMKRILIIGTGGTIASAKTDAGFKSVLTIDEILEKADIKLKNGYEIDTRNILNIDSTLIQPEDWERIAKEVYKALEDYDGIVITHGTDTLAYTASMLTFMIRGINKPVVLTGSMRPVTEEESDAPRNLKAAIRFAMEDVSGIFVAFMDKIMLGCRTSKIRALGLNAFMSINYPDVAYVKGEEVIYNLPQKRFKPKGEPVLDTKYEPRVVFIRLTPGLDGNAIDALVKAGYRGIVLEGYGAGGIPYRKRDILSKIREITPQIPVVMTTQALYDGVDLTKYEVGRKALEAGIIPAKDMTKETTITKLMWALGHTKNVEEVKEIMHTNYADEIEG ?
Ans: Criterion met
